All values here come from the Kinase Knowledgebase extract (Sharma et al. 2016).

Test system UniProt P42336, pIC50 listed for each of the compounds.
Sequence (P42336 whole entry, looked up): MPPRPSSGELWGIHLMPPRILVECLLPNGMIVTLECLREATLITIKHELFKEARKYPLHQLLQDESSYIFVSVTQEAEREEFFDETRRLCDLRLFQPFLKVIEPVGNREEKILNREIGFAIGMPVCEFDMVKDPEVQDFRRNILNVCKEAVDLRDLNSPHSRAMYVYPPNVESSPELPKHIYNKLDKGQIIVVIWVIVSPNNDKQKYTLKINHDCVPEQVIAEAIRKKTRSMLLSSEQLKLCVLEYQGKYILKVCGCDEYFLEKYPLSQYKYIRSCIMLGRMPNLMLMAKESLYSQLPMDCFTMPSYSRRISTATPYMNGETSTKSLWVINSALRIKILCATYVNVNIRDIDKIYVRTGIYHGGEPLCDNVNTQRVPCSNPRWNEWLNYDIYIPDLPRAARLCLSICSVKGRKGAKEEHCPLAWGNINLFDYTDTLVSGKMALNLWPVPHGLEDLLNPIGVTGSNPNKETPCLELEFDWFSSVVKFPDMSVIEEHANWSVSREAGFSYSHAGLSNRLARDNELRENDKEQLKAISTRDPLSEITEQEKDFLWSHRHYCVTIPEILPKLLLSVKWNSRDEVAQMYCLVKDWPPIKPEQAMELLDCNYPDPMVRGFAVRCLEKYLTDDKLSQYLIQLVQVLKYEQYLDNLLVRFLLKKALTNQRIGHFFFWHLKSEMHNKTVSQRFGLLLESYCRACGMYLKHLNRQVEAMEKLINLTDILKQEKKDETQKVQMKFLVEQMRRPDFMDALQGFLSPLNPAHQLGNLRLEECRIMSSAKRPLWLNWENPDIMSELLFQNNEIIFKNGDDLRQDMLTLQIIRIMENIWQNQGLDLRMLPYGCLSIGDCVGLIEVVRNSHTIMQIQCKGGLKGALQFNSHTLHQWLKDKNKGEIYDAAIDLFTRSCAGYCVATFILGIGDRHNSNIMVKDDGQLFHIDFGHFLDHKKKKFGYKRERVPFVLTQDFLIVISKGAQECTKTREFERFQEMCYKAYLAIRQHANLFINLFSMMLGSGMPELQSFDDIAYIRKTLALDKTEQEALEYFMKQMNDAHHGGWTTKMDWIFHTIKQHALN
pIC50: −log10 of the molar value.

Previously resolved entries follow.
{"ITEM_SMILES": "O=C(c1ccc2c(c1)-c1nc(-c3ncnn3CC(F)(F)F)cn1CCO2)N1CCOCC1", "TARGET_UNDER_TEST": "UniProt P42336", "ENDPOINT_LABEL": "pIC50", "RESULT": "> 6.00"}
{"ITEM_SMILES": "CC(C)n1ncnc1-c1cn2c(n1)-c1cnccc1OCC2", "TARGET_UNDER_TEST": "UniProt P42336", "ENDPOINT_LABEL": "pIC50", "RESULT": "> 6.00"}
{"ITEM_SMILES": "CC(C)n1ncnc1-c1cn2c(n1)-c1cc(N3CCN(C)CC3)ncc1OCC2", "TARGET_UNDER_TEST": "UniProt P42336", "ENDPOINT_LABEL": "pIC50", "RESULT": "> 6.00"}
{"ITEM_SMILES": "FC(F)(F)Cn1ncnc1-c1cc2n(n1)-c1cc(C3CCNCC3)ccc1OCC2", "TARGET_UNDER_TEST": "UniProt P42336", "ENDPOINT_LABEL": "pIC50", "RESULT": "> 6.00"}
{"ITEM_SMILES": "CCOC(=O)C(C)(C)n1cc(-c2ccc3c(c2)OCCn2cc(-c4nc(C)nn4C(C)C)nc2-3)cn1", "TARGET_UNDER_TEST": "UniProt P42336", "ENDPOINT_LABEL": "pIC50", "RESULT": "> 6.00"}

Recorded pIC50 of `CC(C)n1ncnc1-c1cn2c(n1)-c1cnc(NCC(N)=O)cc1OCC2` , please. > 6.00

Recorded pIC50 of `CC(C)n1ncnc1-c1cn2c(n1)-c1ccc(C3CCN(CCS(=O)(=O)N(C)C)CC3)cc1OCC2` , please. > 6.00

Recorded pIC50 of `COCc1nc(-c2cn3c(n2)-c2ccc(C4CCN(CC(N)=O)CC4)cc2OCC3)n(C(C)C)n1` , please. > 6.00

Recorded pIC50 of `Cc1nc(-c2cn3c(n2)-c2cnc(N4CCC[C@H]4C(N)=O)cc2OCC3)n(CC(F)(F)F)n1` , please. > 6.00

Recorded pIC50 of `CC(C)n1ncnc1-c1cn2c(n1)-c1cc(C(N)=O)ccc1OCC2` , please. > 6.00

---

Test system PIK3CA (human), pIC50 listed for each of the molecules.
pIC50: −log10 of the molar value.

{"MOLECULE": "NC(=O)c1ccc2c(c1)OCCc1cn(-c3ncnn3-c3ccc(F)cc3F)nc1-2", "RESULT": "> 6.00"}
{"MOLECULE": "CC(C)n1ncnc1-c1cn2c(n1)-c1cnc(N)cc1OCC2", "RESULT": "> 6.00"}
{"MOLECULE": "CC(C)NC(=O)CN1CCN(c2cc3c(cn2)-c2nc(-c4ncnn4C(C)C)cn2CCO3)CC1", "RESULT": "> 6.00"}
{"MOLECULE": "CC(C)n1ncnc1-c1cn2c(n1)-c1cnc(N3CCC[C@H]3C(N)=O)cc1OCC2", "RESULT": "> 6.00"}
{"MOLECULE": "CN(C)c1cc2c(cn1)-c1nc(-c3ncnn3-c3ccccc3Cl)cn1CCO2", "RESULT": "> 6.00"}
{"MOLECULE": "CC(C)n1ncnc1-c1cn2c(n1)-c1cnc(N3CCC(C(N)=O)CC3)cc1OCC2", "RESULT": "> 6.00"}
{"MOLECULE": "Clc1ccc(-c2ccc3c(c2)OCCn2cc(-c4ncnn4-c4ccccc4Cl)nc2-3)cc1", "RESULT": "> 6.00"}
{"MOLECULE": "CC(C)[C@@H](Oc1ccc2c(c1)OCCn1cc(-c3ncnn3CC(F)(F)F)nc1-2)C(N)=O", "RESULT": "> 6.00"}

Could you share what pIC50 was measured for `Cc1nc(-c2cn3c(n2)-c2ccc(Br)cc2OCC3)n(C(C)C)n1` , tested on PIK3CA (human)? > 6.00

Could you share what pIC50 was measured for `CC(C)n1ncnc1-c1cn2c(n1)-c1cnc(N3C[C@@H](O)C[C@H]3C(N)=O)cc1OCC2` , tested on PIK3CA (human)? > 6.00

Could you share what pIC50 was measured for `CC(C)n1ncnc1-c1cn2c(n1)-c1ccncc1OCC2` , tested on PIK3CA (human)? > 6.00

Could you share what pIC50 was measured for `CC(C)n1nc(N)nc1-c1cn2c(n1)-c1ccc(-c3ccc(Cl)cc3)cc1OCC2` , tested on PIK3CA (human)? > 6.00

Could you share what pIC50 was measured for `NC(=O)[C@@H]1COCCN1c1ccc2c(c1)OCCn1cc(-c3ncnn3CC(F)(F)F)nc1-2` , tested on PIK3CA (human)? > 6.00

Could you share what pIC50 was measured for Cc1nc(-c2cn3c(n2)-c2ccc(-c4cnn(CC(C)C(=O)O)c4)cc2OCC3)n(C(C)C)n1 (stereo not given) , tested on PIK3CA (human)? > 6.00

Could you share what pIC50 was measured for `Clc1ccccc1-n1ncnc1-c1cn2c(n1)-c1cc(-c3ccccc3)ccc1OCC2` , tested on PIK3CA (human)? > 6.00

Could you share what pIC50 was measured for `CC(C)n1ncnc1-c1cn2c(n1)-c1cnc(N3CCC(O)CC3)cc1OCC2` , tested on PIK3CA (human)? > 6.00

Could you share what pIC50 was measured for `O=C(CO)N1CCC(c2ccc3c(c2)-n2nc(-c4ncnn4CC(F)(F)F)cc2CCO3)CC1` , tested on PIK3CA (human)? > 6.00

Could you share what pIC50 was measured for `CC(C)n1ncnc1-c1cc2n(n1)-c1cc(C3CN(CCO)C3)ccc1OCC2` , tested on PIK3CA (human)? > 6.00

Could you share what pIC50 was measured for `NC(=O)[C@@H]1CCCN1c1ccc2c(c1)OCCn1cc(-c3ncnn3CC(F)(F)F)nc1-2` , tested on PIK3CA (human)? > 6.00

Could you share what pIC50 was measured for `CC(C)n1nc(CO)nc1-c1cn2c(n1)-c1cnc(N3CC(F)(F)C3)cc1OCC2` , tested on PIK3CA (human)? > 6.00
